The origin of these recorded values is PubChem BioAssay AID1159580.

- assay info: chemical genetic growth profiling, strain panel (AID 1159580);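 also: tested at 20 µM; growth read once vehicle control cultures reached saturation at 30 °C; 1 = growth at the plate median or of vehicle wells; lower values mean less growth of the strain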
- applied conditions: S. cerevisiae deletion strains, growth OD, locus YNR049C, strain mso1, hits give low values
Among all 5,500 compounds or so, about 2,000 (36%) were called active. Not shown: some 18% with an inconclusive outcome. The list shows a part of the results.
The threshold is 1. Values of normalized growth beneath it are tagged true; values meeting or exceeding it are tagged false.

Examples from the recorded data:
CN(C)CCCN1c2ccccc2CCc2ccccc21	false
CC(C)=CC1C(C(=O)O)C1(C)C (stereo not given)	true
Cc1cc(=O)oc2cc(O)cc(O)c12	true
O=C(O)c1cc(O)c2c(c1)[C@@H]([C@H]1c3cc(C(=O)O)cc(O)c3C(=O)c3c(O[C@H]4O[C@H](CO)[C@@H](O)[C@H](O)[C@H]4O)cccc31)c1cccc(O[C@H]3O[C@H](CO)[C@@H](O)[C@H](O)[C@H]3O)c1C2=O	false

Moving on to another compound below.
**Query** Given the entry CC(C)=CCCC(C)[C@@H]1CC[C@]2(C)C3=C(CC[C@@]12C)C1(C)CC[C@H](O)C(C)(C)C1CC3 (stereo not given in full) , would its reported normalized growth be below 1?
**Result** false

* * *

- assay info: chemical genetic growth profiling, strain panel (AID 1159580)
- applied conditions: S. cerevisiae deletion strains, growth OD, locus YGR040W, strain KSS1, hits give low values
Hit rate of the full screen: of about 5,500 compounds, about 2,000 (36%) were called active. Not shown: some 18% with an inconclusive outcome. The list shows a part of the results.
measure name: normalized growth
Respond with the number and no other words.

// below: answered compounds
O=C(Nc1ccc(F)cc1F)c1cc(Cl)c(-n2cccc2)c(Cl)c1	0.94
Cc1cc(/C(N)=N\OC(=O)C(C)(C)C)cc(/C(N)=N\OC(=O)C(C)(C)C)c1	0.979
CC(C)(C)c1cc(C(=O)NNc2cccc(Cl)c2)n(Cc2ccccc2)n1	0.906
CC(=O)c1ccc(Cl)c(N=Cc2cc(Br)cc(Br)c2O)c1	0.103
Cc1c(C)c(C)c(C(=O)c2ccc(N=Cc3cc(Cl)cc(Cl)c3O)cc2)c(C)c1C	0.63

**Query** Specify reported normalized growth for the compound shown: `CSc1n[nH]c(-c2cc(C(C)(C)C)oc2C)c1C#N`
**Result** 0.847

**Query** Specify reported normalized growth for the compound shown: `COc1c(Br)csc1C(=O)O/N=C(/N)c1cc(C(F)(F)F)cc(C(F)(F)F)c1`
**Result** 1.06

**Query** Specify reported normalized growth for the compound shown: `O=C(Nc1cccc(Cl)c1)O/N=C1\CCCc2occc21`
**Result** 0.83

* * *

- assay info: chemical genetic growth profiling, strain panel (AID 1159580);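 also: tested at 20 µM; growth read once vehicle control cultures reached saturation at 30 °C; 1 = growth at the plate median or of vehicle wells; lower values mean less growth of the strain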
- applied conditions: S. cerevisiae deletion strains, growth OD, locus YLR342W, strain FKS1 (second series)
Hit rate of the full screen: of about 5,500 compounds, about 2,000 (36%) were called active. Roughly 18% stayed inconclusive and do not appear here. Cut-off read from the data, not from the text of the source: active = normalized growth mostly below about 0.91 (no sharp cut-off); inconclusive = no clear call, values can overlap the other calls; inactive = mostly above about 0.92. Some of the results follow.
Mark one answer only. Choices: TRUE = active, FALSE = inactive

CC(C)CC(NC(=O)OCC1c2ccccc2-c2ccccc21)C(=O)O (stereo unspecified)	FALSE

**Query** Hey, what did the test say about CC(Cc1cccc(C(F)(F)F)c1)NCCOC(=O)c1ccccc1 (stereo unspecified) ?
**Result** TRUE

**Query** Hey, what did the test say about `O=C(NCO)c1cccnc1` ?
**Result** FALSE

**Query** Hey, what did the test say about C[C@H](CCC(=O)O)[C@H]1CCC2C3C(=O)CC4CC(=O)CC[C@]4(C)C3CC(=O)[C@@]21C (stereo partly specified) ?
**Result** FALSE

**Query** Hey, what did the test say about `O=C(O)c1cccnc1` ?
**Result** FALSE

**Query** Hey, what did the test say about C=C(C)C1CCC(C)(O)C2CC3OC3(C)C2C1 (stereo unspecified) ?
**Result** FALSE

* * *

- assay info: chemical genetic growth profiling, strain panel (AID 1159580);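 also: tested at 20 µM; growth read once vehicle control cultures reached saturation at 30 °C; 1 = growth at the plate median or of vehicle wells; lower values mean less growth of the strain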
- applied conditions: S. cerevisiae deletion strains, growth OD, locus YAL030W, strain snc1, hits give low values
Among all 5,500 compounds or so, about 2,000 (36%) were called active. Inconclusive results (about 18%) are left out. The list shows a part of the results.
measure name: normalized growth
Respond with the number and no other words.

// below: answered compounds
C[C@H](CCC(=O)O)[C@H]1CCC2C3C(=O)CC4CC(=O)CC[C@]4(C)C3CC(=O)[C@@]21C (some centres not stated)	0.963
CCCOc1ccc2nc(NC(=O)OC)[nH]c2c1	1.02
O=C(O)c1ccccc1	0.977

**Query** Specify reported normalized growth for the compound shown: CC(=O)O[C@@H]1C=C[C@@]2(C)C(C[C@@H](OC(C)=O)[C@@]3(C)C4=CC(=O)O[C@@H](c5ccoc5)[C@]4(C)CCC23)C1(C)C (some centres not stated)
**Result** 0.99

**Query** Specify reported normalized growth for the compound shown: CC(=O)O[C@H]1CC[C@@]2(C)C(C[C@@H](OC(C)=O)[C@@]3(C)C4=CC(=O)O[C@@H](c5ccoc5)[C@]4(C)CCC23)C1(C)C (some centres not stated)
**Result** 0.999

**Query** Specify reported normalized growth for the compound shown: `CN(C)[C@@H]1C(=O)C(C(N)=O)=C(O)[C@@]2(O)C(=O)C3=C(O)c4c(O)ccc(Cl)c4[C@@H](O)[C@H]3C[C@@H]12`
**Result** 0.984

**Query** Specify reported normalized growth for the compound shown: Cc1c(C)c2c(c(C)c1O)CCC(C)(CCCC(C)CCCC(C)CCCC(C)C)O2 (configuration not stated)
**Result** 0.983

**Query** Specify reported normalized growth for the compound shown: `CC1=CC(=O)c2c(O)cccc2C1=O`
**Result** 0.0538

**Query** Specify reported normalized growth for the compound shown: CC1=CCCC2C1(C)CCC(C)C2(C)CC/C(C)=C/C[n+]1cn(C)c2c(N)ncnc21 (configuration not stated)
**Result** 0.986

**Query** Specify reported normalized growth for the compound shown: C/C=C\C1=C(C(=O)O)N2C(=O)C(NC(=O)C(N)c3ccc(O)cc3)C2SC1 (configuration not stated)
**Result** 1

**Query** Specify reported normalized growth for the compound shown: CCN1CCN(C(=O)NC(C(=O)N[C@@H]2C(=O)N3[C@@H]2SC(C)(C)[C@@H]3C(=O)O)c2ccccc2)C(=O)C1=O (some centres not stated)
**Result** 1.01

**Query** Specify reported normalized growth for the compound shown: CC(CCC(=O)O)[C@H]1CCC2C3C(=O)C[C@@H]4CC(=O)CC[C@]4(C)C3CC(=O)[C@@]21C (some centres not stated)
**Result** 0.994

**Query** Specify reported normalized growth for the compound shown: CC(CCC(=O)O)[C@H]1CCC2C3CC[C@@H]4C[C@H](O)CC[C@]4(C)C3C=C[C@@]21C (some centres not stated)
**Result** 1.01

**Query** Specify reported normalized growth for the compound shown: `O=C1NC(O)=NC1(c1ccccc1)c1ccccc1`
**Result** 1.02

**Query** Specify reported normalized growth for the compound shown: `CC(=O)c1cc(CC=C(C)C)c(O)c(CC=C(C)C)c1`
**Result** 1.01

**Query** Specify reported normalized growth for the compound shown: `CS(=O)(=O)Nc1ccc([N+](=O)[O-])cc1Oc1ccccc1`
**Result** 1

**Query** Specify reported normalized growth for the compound shown: `O=C(NCO)c1cccnc1`
**Result** 1.01

* * *

- assay info: chemical genetic growth profiling, strain panel (AID 1159580);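 also: tested at 20 µM; growth read once vehicle control cultures reached saturation at 30 °C; 1 = growth at the plate median or of vehicle wells; lower values mean less growth of the strain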
- applied conditions: S. cerevisiae deletion strains, growth OD, locus YLR262C, strain YPT6, hits give low values
The whole screen tested about 5,500 compounds, of which about 2,000 (36%) were called active. About 18% were inconclusive and are not listed. The list shows a part of the results.
measure name: normalized growth

// below: answered molecules
O=C1c2ccccc2C(=O)N1CN(CCSc1ccccc1)CN1C(=O)c2ccccc2C1=O	1.07 (inactive)
O=C(NCO)c1cccnc1	0.954 (inactive)
O=C(O)c1ccc(S(=O)(=O)N(Cl)Cl)cc1	0.995 (inactive)

**Query** Specify reported normalized growth for the molecule shown: `COCc1cc(=O)n2[nH]c(C(C)(C)C)cc2n1`
**Result** 1.03 (inactive)

**Query** Specify reported normalized growth for the molecule shown: `CC(C)=CCc1c2c(c3occ(-c4ccc(O)c(O)c4)c(=O)c3c1O)C=CC(C)(C)O2`
**Result** 0.298 (active)

**Query** Specify reported normalized growth for the molecule shown: `NS(=O)(=O)c1cc2c(cc1Cl)NC(CSCc1ccccc1)=NS2(=O)=O`
**Result** 1.04 (inactive)

**Query** Specify reported normalized growth for the molecule shown: `Cc1cc(=O)n(-c2ccc([N+](=O)[O-])cc2)[nH]1`
**Result** 0.583 (active)

**Query** Specify reported normalized growth for the molecule shown: `C(=C(c1ccccc1)c1ccccc1)N1CCC1`
**Result** 1.02 (inactive)

**Query** Specify reported normalized growth for the molecule shown: N#CC(c1ccccc1)N1CCCCC1 (centres undefined)
**Result** 1.02 (inactive)
